Values from the supplement of paper PMC9112550

- Tested on: Escherichia coli TOP10;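 also: peptides expressed intracellularly from a pBAD plasmid library in pooled LB shake-flask culture, induced with 0.3% L-arabinose, DNA abundance read by NGS, three biological replicates, DESeq2 with apeglm shrinkage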
- test: shrunken log2 fold change of peptide-encoding DNA abundance (4.5 h post-induction vs induction); higher = less antimicrobial activity (less host growth inhibition)
- measurement_setup: time post-induction: 4.5 h; library: site-saturation at positions 5, 18, 19, 20
Please mark TRUE if the recorded shrunken log2 fold change is equal to or greater than -0.005, and FALSE if it falls below.

>>> group("RRIRFRPPRLPRPRPRPYFFPRP")
"FALSE"
>>> group("RRIRQRPPRLPRPRPRPPNQPRP")
"TRUE"
>>> group("RRIRIRPPRLPRPRPRPCIGPRP")
"FALSE"
>>> group("RRIRGRPPRLPRPRPRPRTRPRP")
"TRUE"
>>> group("RRIRSRPPRLPRPRPRPSNFPRP")
"FALSE"

hey, is shrunken log2 fold change for this one >= -0.005? RRIRMRPPRLPRPRPRPRVNPRP TRUE

hey, is shrunken log2 fold change for this one >= -0.005? RRIRERPPRLPRPRPRPKRHPRP TRUE

hey, is shrunken log2 fold change for this one >= -0.005? RRIRVRPPRLPRPRPRPHSNPRP FALSE
